- measured-target: T1, mouse common cytokine receptor γ-chain (IL-2Rγ) (mouse, UniProt P34902 23-263, limits assumed)
- T1 construct: Recombinant mouse IL-2Rγ protein; also called mo IL-2R; mouse IL-2R gamma
- T1 sequence (looked up): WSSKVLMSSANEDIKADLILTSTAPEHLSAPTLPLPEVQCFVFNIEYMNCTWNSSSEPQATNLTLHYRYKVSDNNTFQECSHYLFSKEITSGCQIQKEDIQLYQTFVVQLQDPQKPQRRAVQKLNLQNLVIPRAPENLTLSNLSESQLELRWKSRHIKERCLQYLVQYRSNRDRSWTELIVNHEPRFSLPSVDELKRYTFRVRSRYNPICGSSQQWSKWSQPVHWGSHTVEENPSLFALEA
- test: P.E. binding ELISA
- Experimental: In a binding ELISA, human or mouse IL-2Rα, IL-2Rβ and IL-2Rγ proteins were coated directly on maxisorp microtiter plates overnight at 4° C. Free binding sites were blocked using 4% Marvel in PBS for 1 hour. Next, 1:5 dilution of P.E. in 1% Marvel/PBS were added to wells and incubated for 1 hour. […] Binding specificity was determined based on O.D. at 450 nm values compared to negative controls.
measurement-type: PE binding ELISA OD (OD450 nm)

binder	numeric-result
FJ1427_P035MP07B10 (VHH, tested as periplasmic extract; also called Clone nr; 650) VHH: QVQLVESGGGLVQAGGSLRLSCAASGRTLSRYAMGWFRQAPGKEREFVAADSWGGDTFYADSVEGRFTFSRDNAKNAAYLQMNSLQPEDTATYYCAGAPTSFATTAYSSSNSYRYWGQGTQVTVSS	0.059
FJ1427_P035MP07E01 (VHH, tested as periplasmic extract; also called Clone nr) VHH: QVQLQESGGGLVQAGGSLRLSCAASGRTLSRYAMGWFRQAPGKEREFVACDSWGGDTFYADSVEGRFTFSRDNAKNATYLQMNSLQPEDTAVYYCAGAPTSFATTAYSSSNSYTVWGQGTQVTVSL	0.139
FJ1427_P035MP07C03 (VHH, tested as periplasmic extract; also called Clone nr) VHH: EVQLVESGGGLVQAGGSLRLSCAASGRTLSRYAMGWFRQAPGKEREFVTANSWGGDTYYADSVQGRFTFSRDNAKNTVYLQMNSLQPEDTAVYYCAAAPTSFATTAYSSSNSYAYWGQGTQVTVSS	0.046
FJ1427_P035MP07H05 (VHH, tested as periplasmic extract; also called Clone nr) VHH: QVQLVESGGGLVQAGGSLRLSCAASGRTLSRYAMGWFRQAPGKEREFVAANSWGGDTYYTDSVEGRFTFSRDNAKNAVYLQMNSLQPGDTAVYYCAAAPTSFATTAYSSSNSYSYWGQGTQVTVSS	0.049
FJ1427_P035MP07B07 (VHH, tested as periplasmic extract; also called Clone nr; 626) VHH: QVQLVESGGGLVQAGGSLRLSCAASGRSLSRYAMGWFRQAPGKEREFVAAISWGGDSFYTDSVEGRFTFSRDNAKNAVYLEMNDLQPEDTAVYYCAAAPTSFPTTAYSSSNSYSYWGRGTQVTVSS	0.045
